Parameter: phosphorylation enrichment. Scope: all listed entries.
# target.under.test: MERTK (UniProt Q12866)
# Sequence (Q12866 whole entry, looked up): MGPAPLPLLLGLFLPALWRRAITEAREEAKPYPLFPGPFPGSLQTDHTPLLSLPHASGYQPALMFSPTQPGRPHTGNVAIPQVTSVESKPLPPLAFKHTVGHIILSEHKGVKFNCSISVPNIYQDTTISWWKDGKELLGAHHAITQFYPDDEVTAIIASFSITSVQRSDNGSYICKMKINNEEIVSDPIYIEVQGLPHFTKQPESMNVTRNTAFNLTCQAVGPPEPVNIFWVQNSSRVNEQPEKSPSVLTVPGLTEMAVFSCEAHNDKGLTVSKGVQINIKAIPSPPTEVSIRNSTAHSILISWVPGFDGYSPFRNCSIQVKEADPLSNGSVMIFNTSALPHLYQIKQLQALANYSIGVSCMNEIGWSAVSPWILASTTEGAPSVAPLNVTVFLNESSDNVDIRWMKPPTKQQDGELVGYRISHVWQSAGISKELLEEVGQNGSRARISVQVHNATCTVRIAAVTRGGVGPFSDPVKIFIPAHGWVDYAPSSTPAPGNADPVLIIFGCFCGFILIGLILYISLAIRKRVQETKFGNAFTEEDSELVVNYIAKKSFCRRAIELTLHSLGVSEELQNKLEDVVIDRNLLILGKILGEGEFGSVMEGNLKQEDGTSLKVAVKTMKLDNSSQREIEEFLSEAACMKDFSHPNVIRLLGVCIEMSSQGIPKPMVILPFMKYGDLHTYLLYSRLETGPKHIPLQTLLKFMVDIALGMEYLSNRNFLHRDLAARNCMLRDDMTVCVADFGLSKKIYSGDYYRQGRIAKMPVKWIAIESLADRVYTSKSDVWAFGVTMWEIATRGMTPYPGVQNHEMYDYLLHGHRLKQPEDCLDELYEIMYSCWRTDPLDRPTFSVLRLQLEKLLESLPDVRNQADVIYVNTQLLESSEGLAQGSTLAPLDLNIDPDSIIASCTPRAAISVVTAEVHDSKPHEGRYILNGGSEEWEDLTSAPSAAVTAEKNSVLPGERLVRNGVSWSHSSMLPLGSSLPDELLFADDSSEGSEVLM
# method: phosphorylation enrichment, bacterial display (enrichment ratio); higher = better substrate or ligand; peptides without Tyr show the background;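 also: 11-residue human phosphosite peptides and single-mutation variants displayed on the E. coli surface, counted by deep sequencing, each peptide's frequency after selection divided by its frequency in the unselected input library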;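 also: frequency after pTyr selection over input frequency; kinase dosed for 20-30% of maximal phosphorylation in three min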
Lab note: write the figure by itself, no unit.

Below are worked cases with known answers.
FHKALYTVRSF [PDE6C_Y266_YF]	0.378
ALAHKYLGGGG [HBB_Y146_H147L]	0.407
VVTFSYKPPGN [RBL2_Y544]	0.431
RISRKYKKVRF [F8_Y442_G439S]	0.805
CTTIHYNSMCN [TP53_Y234_Y236S]	0.42

Given the sequence KSIDEYLKLVG [RASAL2_Y381_E379D] , what is its reported phosphorylation enrichment?
0.34

Given the sequence LWQSIYNLDAE [TNNT2_Y251_E254D] , what is its reported phosphorylation enrichment?
0.497

Given the sequence IVAREYYSEAD [CAMK2A_Y106] , what is its reported phosphorylation enrichment?
0.455

---

# target.under.test: EPHB2 (UniProt P29323)
# Sequence (P29323 whole entry, looked up): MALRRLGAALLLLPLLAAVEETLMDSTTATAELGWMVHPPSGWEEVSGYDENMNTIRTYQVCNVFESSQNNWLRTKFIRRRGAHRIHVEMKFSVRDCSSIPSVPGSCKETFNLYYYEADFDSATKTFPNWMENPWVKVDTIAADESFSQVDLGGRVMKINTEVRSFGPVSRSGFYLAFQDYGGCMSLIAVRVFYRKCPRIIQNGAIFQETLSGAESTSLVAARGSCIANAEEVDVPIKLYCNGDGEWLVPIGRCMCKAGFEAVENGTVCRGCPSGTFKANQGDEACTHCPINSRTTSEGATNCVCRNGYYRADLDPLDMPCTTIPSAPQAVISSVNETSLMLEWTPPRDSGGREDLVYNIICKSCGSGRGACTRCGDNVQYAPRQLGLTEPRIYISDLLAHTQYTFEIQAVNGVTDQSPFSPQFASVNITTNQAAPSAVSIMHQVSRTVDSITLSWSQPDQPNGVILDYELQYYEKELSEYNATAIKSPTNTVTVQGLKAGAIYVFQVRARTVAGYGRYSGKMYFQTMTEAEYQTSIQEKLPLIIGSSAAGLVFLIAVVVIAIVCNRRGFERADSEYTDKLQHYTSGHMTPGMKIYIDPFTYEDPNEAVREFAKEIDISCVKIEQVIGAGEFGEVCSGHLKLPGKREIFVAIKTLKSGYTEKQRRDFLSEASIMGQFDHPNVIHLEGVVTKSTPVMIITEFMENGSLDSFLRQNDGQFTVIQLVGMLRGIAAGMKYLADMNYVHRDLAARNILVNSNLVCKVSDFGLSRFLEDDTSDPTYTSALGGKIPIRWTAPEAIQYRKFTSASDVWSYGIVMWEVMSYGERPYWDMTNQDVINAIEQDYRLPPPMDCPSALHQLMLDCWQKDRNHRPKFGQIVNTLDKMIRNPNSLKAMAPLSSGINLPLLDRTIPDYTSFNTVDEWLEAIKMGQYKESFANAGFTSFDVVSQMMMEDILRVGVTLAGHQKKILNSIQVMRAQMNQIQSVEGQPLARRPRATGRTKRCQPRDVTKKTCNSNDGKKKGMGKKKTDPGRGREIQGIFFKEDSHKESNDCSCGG
# method: phosphorylation enrichment, bacterial display (enrichment ratio); higher = better substrate or ligand; peptides without Tyr show the background
Records here are stratified by phosphorylation enrichment; strata: Low: < 0.6; Mid: ≥ 0.6 and < 0.7; High: ≥ 0.7

PHQTIYSALMI [FGF23_Y70]	High

Entry PQGVGYPPQQQ [EP300_Y2219] belongs to which category?
Mid

Entry HSDFQYSQRSQ [PKP2_Y168_YF] belongs to which category?
High

Entry SYPREYGSQEG [RBM10_Y48] belongs to which category?
Low

Entry HNLFSYPTKHE [MYO3A_Y1396_YF] belongs to which category?
Mid

Entry GGDAVYTNGAI [RFX2_Y82] belongs to which category?
Low

Entry QNAGDYYDLYG [PTPN11_Y62_T59A] belongs to which category?
High

Entry ASFSLYEPAKM [MKI67_Y340_P338S] belongs to which category?
High

Entry FEEDSYSHVMA [FDPS_Y388_I391V_YF] belongs to which category?
Low

Entry HSREDYFECFQ [ZIM2_Y411_Q408R] belongs to which category?
High

Entry FEHVGYTTLNR [CHN1_Y148_YF] belongs to which category?
Low

Entry QKNVSYVSRVS [TASOR_Y1043_T1046R] belongs to which category?
Low

Entry LSGFCYRLSDQ [PDCD6_Y124_G123C] belongs to which category?
High

---

Parameter: phosphorylation enrichment. Scope: all listed entries.
# target.under.test: EPHB1 (UniProt P54762)
# Sequence (P54762 whole entry, looked up): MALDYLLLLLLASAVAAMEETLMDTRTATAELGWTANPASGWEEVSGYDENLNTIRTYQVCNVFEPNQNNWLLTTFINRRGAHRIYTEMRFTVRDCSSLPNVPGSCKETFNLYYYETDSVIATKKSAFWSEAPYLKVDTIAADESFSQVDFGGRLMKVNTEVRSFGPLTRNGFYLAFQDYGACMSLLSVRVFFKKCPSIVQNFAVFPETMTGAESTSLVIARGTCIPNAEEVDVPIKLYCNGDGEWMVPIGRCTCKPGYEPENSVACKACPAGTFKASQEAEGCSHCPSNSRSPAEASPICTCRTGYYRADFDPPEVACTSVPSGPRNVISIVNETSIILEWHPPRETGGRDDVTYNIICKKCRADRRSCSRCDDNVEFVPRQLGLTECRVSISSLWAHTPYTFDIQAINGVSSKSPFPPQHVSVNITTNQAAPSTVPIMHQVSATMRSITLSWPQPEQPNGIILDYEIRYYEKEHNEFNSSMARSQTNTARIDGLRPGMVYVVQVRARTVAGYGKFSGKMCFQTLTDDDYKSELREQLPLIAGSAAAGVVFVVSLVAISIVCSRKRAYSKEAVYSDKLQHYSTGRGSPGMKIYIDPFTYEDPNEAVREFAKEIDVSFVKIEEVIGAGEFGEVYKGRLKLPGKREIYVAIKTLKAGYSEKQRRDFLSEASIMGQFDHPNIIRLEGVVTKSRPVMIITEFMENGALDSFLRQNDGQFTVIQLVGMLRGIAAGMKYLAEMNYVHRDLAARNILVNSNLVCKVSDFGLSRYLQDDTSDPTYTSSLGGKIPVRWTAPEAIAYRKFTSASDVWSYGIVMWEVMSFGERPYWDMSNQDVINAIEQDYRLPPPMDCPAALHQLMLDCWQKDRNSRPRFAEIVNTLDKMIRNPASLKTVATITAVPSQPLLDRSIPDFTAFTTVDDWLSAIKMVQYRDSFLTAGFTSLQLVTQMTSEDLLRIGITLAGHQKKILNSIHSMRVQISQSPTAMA
# method: phosphorylation enrichment, bacterial display (enrichment ratio); higher = better substrate or ligand; peptides without Tyr show the background
Lab note: write the figure by itself, no unit.

Given the sequence KGEDFYCVTRH [FHL1_Y149_C153R] , what is its reported phosphorylation enrichment?
0.592

Given the sequence NTYEKYLGEEY [TF_Y669] , what is its reported phosphorylation enrichment?
0.601

Given the sequence GDFLSYREFHL [ERBIN_Y1107_S1112L_YF] , what is its reported phosphorylation enrichment?
0.599

---

# target.under.test: MERTK (UniProt Q12866)
# method: phosphorylation enrichment, bacterial display (enrichment ratio); higher = better substrate or ligand; peptides without Tyr show the background
Param threshold (0.4) applies to phosphorylation enrichment; output Met when value >= threshold, Not met when value < threshold.

Consider the worked cases shown below.
TVLWQYTGTRP [UGT1A1_Y337_R336Q]	Not met
TNYCLYLRSLE [MTM1_Y71_R69C]	Met

Tell me whether phosphorylation enrichment is at least 0.4 here: IGSQRYKLGVR [RB1_Y446]
Not met

Tell me whether phosphorylation enrichment is at least 0.4 here: FSALDYKIFFF [WDPCP_Y210_L205F_YF]
Met

Tell me whether phosphorylation enrichment is at least 0.4 here: DHKRQYELLKL [KIF4B_Y684_R680H]
Not met

Tell me whether phosphorylation enrichment is at least 0.4 here: PDDPSYSLVDD [PSTPIP2_Y323_N322S]
Met

Provenance of the data: the supplement of paper PMC10065799
